test system: MS2 coat protein; test: apparent KD of MS2 coat protein; designed switch direction (-1 OFF switch, 1 ON switch): -1; higher = weaker reporter binding; conditions: input ligand: none
Observed Property: apparent KD of MS2 coat protein (nM)
Report only the number, with the unit nM understood.

Here are 5 sequences together with their reported answers.
• CCUCACCGAGGAUAUACAUGAGGAUCACCCAUGUGAUCCUAAGGCUGAUCAAGCCUAUGUAGAAGGCGCAAAUC [salish99_ex3_r4_005] (Eterna round: R97, puzzle: Exclusion 3) = 765
• UCUUGUUGUCCGUGAGAAUACAUGAGGAUCACCCAUGUUAGUUUGAUUAUGAUGUGUAAGUUUGUUGCUCGUUUUAU [JR_STOV1_Sub070] (Eterna round: R97, puzzle: Sensor, turn-off variant 1) = 41.3
• AAUAAGCGAGGAUAUACACCCGGUAACCGGGAACGGGCGAGACAUGAGGAUCACCCAUGUAGAAGGCGCGUCAA [Ralaente] (Eterna round: R97, puzzle: Exclusion 2) = 161
• GUUAUUUCAGGAUAUACAUGAGGAUCACCCAUGUAAGCAAGGUGCCUGCAUCCCGACUGUAGAAGGGAAAUGAG [Eternabot (L2) Solution 61] (Eterna round: R97, puzzle: Exclusion 3) = 28.5
• AUCAGCUCGUGAGGAUAUGAACAUGAGGAUCACCCAUGUAAGAUCAAGCUGCUUCGGCAGCAAGUUCAGAAGGCACGAGCUGAU [ENG2/10-A3] (Eterna round: R96, puzzle: Exclusion NG 2) = 156

Okay, next one:
What measured apparent KD of MS2 coat protein goes with ACAAGCUUGUAAUGAUUGAACAUGAGGAUCACCCAUGUAAAUGGAAGAACCAACUUGAUAUGAUUUACUCGUCUUAU [JR_STOV1_Sub011] (Eterna round: R97, puzzle: Sensor, turn-off variant 1) ?
546

###

system: MS2 coat protein; assay: apparent KD of MS2 coat protein, switch ON state; designed switch direction (-1 OFF switch, 1 ON switch): -1; higher = weaker reporter binding; conditions: FMN input: 0 or 200 uM; Eterna round: R93 (includes R88 designs)
Reported apparent KD of MS2 coat protein values follow for various sequences
Lab book: enter the figure in nM, no units written.

- AAGAUGUCAGGAUAUGCUGCUCGUCACGAAAGUGAUGAGUAGCAGAAGGGACAUGAGGAUCACCCAUGUAAAGA [Exclusion 4.1c (Exclusion4-cac2 - mutated U at 5)]: 112

Recorded apparent KD of MS2 coat protein of AACUGACAUGAGGAUCACCCAUGUCAGGAUAUGAUAUGUAAAAAAAAAAAAAUACUUAUCAGAAGGGACAUGGA [Design 42: Sub-opt BB] , please.
22.8

Field entry: AAUAAACAUGAGGAUCACCCAUGUGAGGAUAUACAGAUUAUAAGAAAAAAAAAAAAAAGUAGAAGGCACAUAUA [Default title]
17.6

Queued: GACCAGUGAGGAUAUGUAAAAAAAAGAGAAGAGAAGAGAGAACAGAAGGCACAUGAGGAUCACCCAUGUAGGGA [Default title]
143

Lookup AAAAAGGCAGGAUAUACAUGAGGAUCACCCAUGUUUUAAAAAAAAAAAAAAAAAAAAAGUAGAAGGGCCAAAAA [Ex 3.1]
52.3

Next record, please: ACAAGAUCAGGAUAUACAUGAGGAUCACCCAUGUAAAUCAAAAAGGGACUUACUUAAUGUAGAAGGGAUCAUGU [EX3 279: Random 15]
28.6
